The binders listed here are annotated with their pKd.
# Assayed system: DLG2_2, Q15700
# Sequence (Q15700 189-283): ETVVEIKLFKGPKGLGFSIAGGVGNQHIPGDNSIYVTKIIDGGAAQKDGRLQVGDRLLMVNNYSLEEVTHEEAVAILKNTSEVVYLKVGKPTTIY
# Test details: holdup assay
# Parameters: key: below the threshold = too weak to quantify, mostly under pKd 3.1 to 4
# Condition context: plain residues with an end cap or a label only (N-terminal biotin on a linker: ttds)

- Binder: "SHSSKGETAV [FZD7, O75084]"
  pKd: 4.55
- Binder: "FVETQHQTQV [FAT3, Q8TDW7]"
  pKd: 4.5
- Binder: "KLVIKTETTV [RASSF6, Q6ZTQ3]"
  pKd: 5.24
- Binder: "GARVSKETPL [MAPK12, P53778]"
  pKd: 4.25
- Binder: "KQVVPFSSSV [GDA, Q9Y2T3]"
  pKd: 3.89
- Binder: "PPRQRSETQV [HPV82-E6, Q9IR59]"
  pKd: 4.79
- Binder: "NPDALPETLV [ARHGAP6, O43182]"
  pKd: 4.23
- Binder: "QRPYRRESEI [KCNJ12, Q14500]"
  pKd: 3.96
- Binder: "PSRDRKETSI [RALBP1, Q15311]"
  pKd: 4.29
- Binder: "GRLLGLETNV [ARHGEF26, Q96DR7]"
  pKd: 4.88
- Binder: "SRSRRRETAL [HPV33-E6, P06427]"
  pKd: 4.57
- Binder: "SSIDLWETAL [SLC15A5, A6NIM6]"
  pKd: 3.88
- Binder: "SGGKRKETLV [NET1, Q7Z628]"
  pKd: 5.26
